# System Name: T1, HpFurE5A (Helicobacter pylori, UniProt O25671 1-150, E5A)
# T1 sequence: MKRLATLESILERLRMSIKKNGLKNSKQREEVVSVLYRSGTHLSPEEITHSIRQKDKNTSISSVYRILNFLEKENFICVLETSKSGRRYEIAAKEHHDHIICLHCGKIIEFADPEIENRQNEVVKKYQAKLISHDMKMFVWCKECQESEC
# Method Summary: fluorescence anisotropy
Quantity: Kd
Could you write the number and then its unit?

Ask: Kd for amiE Fur box duplex (dsDNA) DNA 1: TGCCCCAATAATCATAATGATTAA DNA 2: TTAATCATTATGATTATTGGGGCA ?
Reply: 2 nM
